Test: Antifungal activity against Madurella mycetomatis isolate 68 by XTT assay
Format: functional
Numbered stars: 1 amine (or outer) side, 2 acyl side, 3 side chain; on linkers, the order of the positions; unused ones are H or OH. Bridge positions count the residues as written; N and C are the ends. Square brackets hold non-standard residues; d marks the D form. Peptide text beside a SMILES is read from it. * marks the point of attachment. hTyr(3S-OH,4S-OH,3'-OSO3H) = N[C@H](C(=O)O)[C@H](O)[C@@H](O)c1ccc(O)c(OS(=O)(=O)O)c1; pTerphenylCO(4''-OnC5H11) = CCCCCOc1ccc(-c2ccc(-c3ccc(C(=O)*)cc3)cc2)cc1; Orn(4R-OH,5R-OH) = O=C([C@H](C[C@@H](O)[C@@H](O)N[*:3])N[*:1])[*:2]; hTyr(3S-OH,4S-OH) = N[C@H](C(=O)O)[C@H](O)[C@@H](O)c1ccc(O)cc1; Pro(3S-OH,4S-Me) = C[C@H]1CN[C@H](C(=O)O)[C@H]1O; X1 = CCCCCOc1ccc(-c2cc(-c3ccc(C(=O)*)cc3)no2)cc1; Gln(3R-OH) = NC(=O)C[C@@H](O)[C@H](N)C(=O)O; Hyp = O=C(O)[C@@H]1C[C@@H](O)CN1

>  <COMPOUND>
CC(=O)N1CCN(c2ccc(OCC3COC(Cn4ccnc4)(c4ccc(Cl)cc4Cl)O3)cc2)CC1 (centres undefined)

>  <SIGN_QUALIFIER>
=

>  <MIC / µg/mL>
0.125

$$$$
>  <COMPOUND>
CCCCCOc1ccc(-c2cc(-c3ccc(C(=O)N[C@H]4C[C@@H](O)[C@@H](O)NC(=O)[C@@H]5[C@@H](O)[C@@H](C)CN5C(=O)[C@H]([C@H](O)CC(N)=O)NC(=O)[C@H]([C@H](O)[C@@H](O)c5ccc(O)c(OS(=O)(=O)O)c5)NC(=O)[C@@H]5C[C@@H](O)CN5C(=O)[C@H]([C@@H](C)O)NC4=O)cc3)no2)cc1 [MICAFUNGIN] (X1-[Orn(4R-OH,5R-OH)]T[Hyp][hTyr(3S-OH,4S-OH,3'-OSO3H)][Gln(3R-OH)][Pro(3S-OH,4S-Me)]; lactam 1-C)

>  <SIGN_QUALIFIER>
>

>  <MIC / µg/mL>
128

$$$$
>  <COMPOUND>
CCCCCOc1ccc(-c2ccc(-c3ccc(C(=O)N[C@H]4C[C@@H](O)[C@@H](O)NC(=O)[C@@H]5[C@@H](O)[C@@H](C)CN5C(=O)[C@H]([C@@H](C)O)NC(=O)[C@H]([C@H](O)[C@@H](O)c5ccc(O)cc5)NC(=O)[C@@H]5C[C@@H](O)CN5C(=O)[C@H]([C@@H](C)O)NC4=O)cc3)cc2)cc1 [ANIDULAFUNGIN] ({pTerphenylCO(4''-OnC5H11)}-[Orn(4R-OH,5R-OH)]T[Hyp][hTyr(3S-OH,4S-OH)]T[Pro(3S-OH,4S-Me)]; lactam 1-C)

>  <SIGN_QUALIFIER>
>

>  <MIC / µg/mL>
128

$$$$
>  <COMPOUND>
CC[C@H](C)C[C@H](C)CCCCCCCCC(=O)N[C@H]1C[C@@H](O)[C@@H](NCCN)NC(=O)[C@@H]2[C@@H](O)CCN2C(=O)[C@H]([C@H](O)CCN)NC(=O)[C@H]([C@H](O)[C@@H](O)c2ccc(O)cc2)NC(=O)[C@@H]2C[C@@H](O)CN2C(=O)[C@H]([C@@H](C)O)NC1=O

>  <SIGN_QUALIFIER>
=

>  <MIC / µg/mL>
64

$$$$
